Assay: NCI Yeast Anticancer Drug Screen. Data for the CLN2oe strain (AID 163)
Conditions: S. cerevisiae CLN2oe strain, at 33.0 µM
Compounds without any hit were thinned out: in the full panel of roughly 79,000, 15% have a hit. Active and inactive are the calls of the source. Rule as the data show it: active = growth inhibition above about 70%; inactive = the rest.
Valid outcomes are listed here; reply with one: active, inactive

# count of solved cases: 10
                                   compound  qualitativelabel
0  CC(=O)ON=C1C=CC(=C(C#N)c2ccc(Cl)cc2)C=C1          inactive
1                       CCCCCCCCCCCCNC(C)=O          inactive
2               CC(/C=C/c1ccccc1)=N\NC(N)=S          inactive
3  Cc1cc(N(CCOS(C)(=O)=O)CCOS(C)(=O)=O)ccc1C=Nc1ccc(-c2csc(-c3ccccc3)n2)c(Cl)c1            active
4  Cc1cc(-c2cc(C)c(O)c(C(C)(C)C)c2)cc(C(C)(C)C)c1O          inactive
5  O=C1NC(SSC2=NNC3(C(=O)N2)c2ccccc2-c2ccccc23)=NNC12c1ccccc1-c1ccccc12          inactive
6            O=C(O)c1ccc(N2C(=O)C=CC2=O)cc1          inactive
7  O=[N+]([O-])c1ccc2c(c1)/C(=N/N=C1c3ccccc3Cc3ccccc31)c1cc([N+](=O)[O-])cc([N+](=O)[O-])c1-2            active
8             O=[N+]([O-])c1cc[n+]([O-])cc1          inactive
9  CC(C)(C)[Si](C)(C)OCC1CCC(n2cnc3c(NC(=O)c4ccccc4)ncnc32)O1 (stereo unspecified)          inactive

Which outcome was entered for the compound CCCCCCOC(=O)NCCOC(=O)Nc1ccccc1 in this test?
inactive

Which outcome was entered for the compound O=C(/C=C(/c1ccccc1)N1CCCCC1)c1ccccc1 in this test?
inactive

Which outcome was entered for the compound O=[n+]1c2ccccc2n([O-])c2cc(Br)ccc21 in this test?
active

Which outcome was entered for the compound CCOC(=O)C1=C(C)NC(C)=C(C(=O)OCCNC(=O)c2ccc(N=[N+]=[N-])cc2)C1c1ccccc1C(F)(F)F (stereo unspecified) in this test?
inactive

Which outcome was entered for the compound C[C](C)(C)[Ge]([O][Ge]([c]1ccccc1)[c]1ccccc1)([O][Ge]([c]1ccccc1)[c]1ccccc1)[C](C)(C)C in this test?
active

Which outcome was entered for the compound COc1c(O)c(C=O)c(Br)c(C=O)c1O in this test?
inactive

Which outcome was entered for the compound O=C(/C=C\c1cccc(C(F)(F)F)c1)c1ccccc1 in this test?
inactive
